- System: NCI/ADR-RES ovarian
- test_protocol: NCI-60 one-dose screen, 48 h (100 = growth as untreated, 0 = no growth, -100 = all killed)
- test_conditions: 10 µM unless noted
This is part of a sample that, as a whole, favours compounds with a hit. Of some 83,000 tested, about 20% had one in any assay.
property_name: growth (%)

1) CNCCOc1nc2c3cnccc3cc(-c3cc(OC)c(OC)c(OC)c3)c2c2ccncc12	-27.9
2) Cc1c(C(=O)NCCC(=O)NO)sc2ncnc(Nc3ccc(F)c(Cl)c3)c12	101
3) C[C@@H](Nc1ncnc2ccc(-c3cnc(N)nc3)cc12)c1ccc(F)cc1	86
4) Cc1cccc(C)c1N=c1oc2ccc(Cl)cc2nc1-c1ccccc1O	86.4
5) O=C1/C=C/[C@@H](O)[C@@H]2C[C@@H](O)C[C@H]2/C=C/CCC[C@H](CCc2cccc3ccccc23)O1	2.01
6) COc1cccc(-c2nc3occn3c2-c2ccnc(NCCNS(=O)(=O)c3ccc(C(F)(F)F)cc3)n2)c1	99.4
7) COc1cc(/C(C)=C(\c2ccc(Cl)cc2)c2ccc(OCCN(C)C)cc2)ccc1F	69.4
8) COc1cc2c(=O)n(CCN(C)C)c3c4cc5c(cc4ccc3c2cc1OC)OCO5	2.87
9) O=C(/C(=C/c1ccc([N+](=O)[O-])cc1)SCc1ccc(F)cc1)c1ccc(F)cc1	77.1

---

- Tested on: 786-0 renal
- test_protocol: NCI-60 one-dose screen, 48 h (100 = growth as untreated, 0 = no growth, -100 = all killed)
- test_conditions: 10 µM unless noted
Compounds without any hit were thinned out: in the full panel of roughly 83,000, 20% have a hit.
property_name: growth (%)

1. CCOC(=O)/C(C#N)=C1/NNC(=Nc2cccnc2)S1	98
2. CCNC(=O)Oc1ccc(/C(=C(\C)c2ccccc2)c2ccc(OCCN(CC)CC)cc2)cc1	66.3
3. CC(C)(C)c1cc(C=O)cc(C(C)(C)C)c1O	107
4. O=C(/C(=C\c1ccc([N+](=O)[O-])cc1)S(=O)Cc1ccc(Cl)cc1)c1ccc(Cl)cc1 (centres undefined)	32.1
5. C=C(C)[C@@H]1CC[C@]2(C(=O)N[C@H](CO)Cc3ccccc3)CC[C@]3(C)[C@H](CC[C@@H]4[C@@]5(C)CCCNC(C)(C)[C@@H]5CC[C@]43C)[C@@H]12	-90.7
6. O=C(Nc1ccc(Cl)cc1)c1cc(NCc2cc(O)ccc2O)ccc1O	95.6
7. O=C1CC(=O)OC(c2ccc([N+](=O)[O-])cc2)O1	-73.8
8. O=C(CCN1CCCC1)Nc1ccc2c(Nc3ccc(F)cc3)c3ccccc3nc2c1	-35.9
9. Cc1ccc(CNc2c3ccccc3nc3cc(NC(=O)CCN4CCCC4)ccc23)cc1	22.3

---

- System: NCI-H226 lung
- test_protocol: NCI-60 one-dose screen, 48 h
- test_conditions: 10 µM unless noted
About 83,000 compounds went through this panel and 20% of them were active in at least one assay; those are over-represented in the sample as a whole. Calls of active or inactive are those of the source. How the source made its calls: active means growth percent below 10; inactive means the rest.
Classes used: true for active, false for inactive

1. N#C/C(=C\c1ccc([N+](=O)[O-])s1)c1nc2cc(Br)ccc2s1	true
2. CC(Sc1nc2ccccc2c(=O)n1CCc1ccc(S(N)(=O)=O)cc1)C(=O)Nc1ccc(Cl)cc1 (centres undefined)	false
3. c1ccc2cc(Cn3c(-c4cccc5ccccc45)[n+](Cc4ccc5ccccc5c4)c4c5ccccc5c5ccccc5c43)ccc2c1	true
4. COc1ccc(/C=N/NC(=O)c2cnn3c2NC(c2ccccc2)C3)cc1OC (centres undefined)	false
5. COc1ccc2[nH]c(O)c(/C=c3/cc4c(c(-c5ccc(F)cc5)n3)=Nc3ccccc3-4)c2c1	false
6. COc1ccc(-c2nc(S(=O)(=O)c3ccccc3)c(S(=O)CC(=O)N3CCC(C)CC3)o2)cc1 (centres undefined)	false
7. O=C(Nc1ccc(Cl)cc1)c1cc(NCc2cc(O)ccc2O)ccc1O	false
8. CC(=O)Nc1ccc(-c2ccc3c(c2)NC(=O)/C3=C\c2ccc[nH]2)cc1	false
9. Fc1ccc(-c2cn3c(nc4ccccc43)c(-c3ccccc3)n2)cc1	false
